# target-or-system: rat B1R (bradykinin receptor 1) (Rattus norvegicus, UniProt P97583)
# Construct: expressed in transfected cells; host or cells: CHO K1 cells
# Sequence (P97583 whole entry): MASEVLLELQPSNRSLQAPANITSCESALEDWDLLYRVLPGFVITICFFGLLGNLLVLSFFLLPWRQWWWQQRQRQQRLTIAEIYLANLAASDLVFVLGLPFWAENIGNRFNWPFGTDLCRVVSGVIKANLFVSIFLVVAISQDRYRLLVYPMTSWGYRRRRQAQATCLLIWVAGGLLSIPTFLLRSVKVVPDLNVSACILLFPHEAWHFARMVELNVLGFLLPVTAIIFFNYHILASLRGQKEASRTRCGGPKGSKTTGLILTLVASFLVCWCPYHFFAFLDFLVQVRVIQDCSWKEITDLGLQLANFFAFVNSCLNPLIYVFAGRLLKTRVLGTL
# assay-summary: FLIPR Ca2+ assay (Fluo-4) on CHO K1 cells stably transfected with the B1R gene of the rat (rB1R cells): % inhibition at 10 μM / IC50, agonist Des-Arg9-bradykinin
# Type: cell-based
# condition-parameters: CHO-K1, rat B1R
# Description: The agonistic or antagonistic action of substances can be quantified on the bradykinin receptor 1 (B1R) of the human and rat species with ectopically expressing cell lines (CHO K1 cells) and with the aid of a Ca^2+-sensitive dyestuff (Fluo-4) in a fluorescent imaging plate reader (FLIPR). […] The agonistic or antagonistic action of substances can be determined on the bradykinin receptor 1 (B1R) of the human and rat species with the following assay. […]
Please provide measured inhibition at 10 µM for the entries that follow.
Numbers only, in %.

Would you please look over these solved cases?
O=C(NC1CCc2ccc(C(=O)N3CCC4(CCN(C(=O)Nc5c(Cl)cccc5Cl)CC4)CC3)cc21)c1ccccc1Cl (stereo not shown) | 91
O=C(NC1CCc2ccc(C(=O)N3CCC4(CCN(Cc5ccc6ncccc6c5)CC4)CC3)cc21)c1cc(C(F)(F)F)ccc1Cl (stereo not shown) | 100
Cc1ccc(F)c(C(=O)NC2CCc3ccc(C(=O)N4CCC5(CCN(c6ccncc6)CC5)C4)cc32)c1Cl (stereo not shown) | 99
Cc1c(CN2CCC3(CC2)CCN(C(=O)c2ccc4c(c2)C(NC(=O)c2cc(C(F)(F)F)ccc2Cl)CC4)CC3)cnn1C (stereo not shown) | 54
CN(C1CCc2ccc(C(=O)N3CCC4(CC3)CCN(c3ccncc3)CC4)cc21)S(=O)(=O)Cc1ccccc1F (stereo not shown) | 102

Would you mind giving inhibition at 10 µM for every compound in the list below?
1. O=C(c1ccc2c(c1)C(N(C(=O)c1ccccc1Cl)C1CC1)CC2)N1CCC2(CCN(C(=O)C3CC3)CC2)C1 (stereo not shown)
2. O=C(NC1CCc2ccc(C(=O)N3CCC4(CCN(CCCc5ccc(F)cc5)CC4)CC3)cc21)c1cccc(Cl)c1Cl (stereo not shown)

Marked response:
[75, 93]

----------
Please provide measured inhibition at 10 µM for the entries that follow.
# target-or-system: human B1R (bradykinin receptor 1) (Homo sapiens)
# Construct: expressed in transfected cells; host or cells: CHO K1 cells
# Sequence (P46663 whole entry): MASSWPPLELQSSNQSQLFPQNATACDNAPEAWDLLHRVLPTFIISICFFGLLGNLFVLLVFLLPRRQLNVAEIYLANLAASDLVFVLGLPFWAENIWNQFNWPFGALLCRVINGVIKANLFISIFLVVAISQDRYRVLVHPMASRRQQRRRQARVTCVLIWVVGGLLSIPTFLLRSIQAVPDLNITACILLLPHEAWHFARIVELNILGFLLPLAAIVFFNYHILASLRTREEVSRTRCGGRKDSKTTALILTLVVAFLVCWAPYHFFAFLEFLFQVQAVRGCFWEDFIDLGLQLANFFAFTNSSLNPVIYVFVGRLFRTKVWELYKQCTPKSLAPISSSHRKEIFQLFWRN
# assay-summary: FLIPR Ca2+ assay (Fluo-4) on CHO K1 cells stably transfected with the human B1R gene (hB1R cells): % inhibition at 10 μM / IC50, agonist Lys-Des-Arg9-bradykinin
# Assay type: cell-based
# condition-parameters: CHO-K1, human B1R
Give bare numbers, in %.

O=C(NC1CCc2ccc(C(=O)N3CCCC4(CC3)CCN(c3ccncc3)CC4)cc21)c1ccccc1Cl (stereo not shown) | 100

Would you mind giving inhibition at 10 µM for every compound in the list below?
1. O=C(c1cccc2c1CC[C@H]2NS(=O)(=O)c1ccccc1Cl)N1CCC2(CC1)CCN(c1ccncc1)CC2
2. O=C(N[C@@H]1CCc2ccc(C(=O)N3CCC4(CCN(c5ccncc5)CC4)C3)cc21)c1c(F)cccc1Cl
3. CC1(C)Cc2ccc(C(=O)N3CCC4(CC3)CCN(c3ccncc3)CC4)cc2C1NC(=O)c1cc(Cl)ccc1Cl (stereo not shown)
4. COc1cc(C)c(C(=O)NC2CCc3ccc(C(=O)N4CCC5(CC4)CCN(c4ccncc4)CC5)cc32)c(C)c1 (stereo not shown)
5. CC1(C)Cc2ccc(C(=O)N3CCC4(CC3)CCN(c3ccncc3)CC4)cc2C1NC(=O)c1cc(C(F)(F)F)ccc1Cl (stereo not shown)
6. Cc1cccc(C)c1C(=O)N[C@@H]1CCc2ccc(C(=O)N3CCC4(CCN(c5ccncc5)CC4)C3)cc21

Marked response:
1. 35
2. 100
3. 97
4. 68
5. 53
6. 101
